Species on record: Mus musculus
Experiment: Concentration required to inhibit electrically induced contractions in isolated mouse vas deferens preparation in vitro
Assay type: functional
Settings: Mus musculus
Entries and their measured IC50 follow.
observationType: IC50 (nM)

{"compound": "COc1ccc(C(=O)c2c(C)n(CCN3CCCCC3)c3ccccc23)cc1", "observationType": "IC50", "measureUnit": "nM", "inequalityOperator": "=", "valueReported": 1430}
{"compound": "Cc1c(C(=O)c2cnc3ccccc3c2)c2ccccc2n1CCN1CCOCC1", "observationType": "IC50", "measureUnit": "nM", "inequalityOperator": "=", "valueReported": 571}
{"compound": "COc1ccc(C(=O)c2c(C)n(CCCN3CCOCC3)c3ccccc23)cc1", "observationType": "IC50", "measureUnit": "nM", "inequalityOperator": "=", "valueReported": 360}
{"compound": "COc1ccc(C(=O)c2c(C)n(CCN3CCOCC3)c3c(C)cccc23)cc1", "observationType": "IC50", "measureUnit": "nM", "inequalityOperator": "=", "valueReported": 178}
{"compound": "Cc1c(C(=O)c2cccc3ccccc23)c2ccccc2n1CCN1CCOC(C)C1 (stereo not given)", "observationType": "IC50", "measureUnit": "nM", "inequalityOperator": "=", "valueReported": 30}
{"compound": "N#Cc1ccc(C(=O)c2cn(CCN3CCOCC3)c3ccccc23)c2ccccc12", "observationType": "IC50", "measureUnit": "nM", "inequalityOperator": "=", "valueReported": 4.8}
{"compound": "Cc1ccc(C(=O)c2c(C)n(CCN3CCOCC3)c3ccccc23)cc1", "observationType": "IC50", "measureUnit": "nM", "inequalityOperator": "=", "valueReported": 442}
{"compound": "COc1ccc(C(=O)c2c(C)n(CCN3CCOCC3)c3cccc(C)c23)cc1", "observationType": "IC50", "measureUnit": "nM", "inequalityOperator": ">", "valueReported": 10000}
{"compound": "CCN(CC)CCn1c(C)c(C(=O)c2ccc(OC)cc2)c2ccccc21", "observationType": "IC50", "measureUnit": "nM", "inequalityOperator": ">", "valueReported": 10000}
{"compound": "COc1ccc(C(=O)c2c(C)[nH]c3ccccc23)cc1", "observationType": "IC50", "measureUnit": "nM", "inequalityOperator": "=", "valueReported": 27}
